assayRemarks: polyglutamine-triggered caspase-3 activation inhibitors, cell-based (AID 1583)
details: polyglutamine-induced caspase-3 activation, cell assay; stronger effect = higher value; concentration not given here

[
  {
    "compound": "CCOC(=O)C(Cc1ccc(O)cc1)NC(C)=O (stereo not given)",
    "inhibition [%]": -16.6
  },
  {
    "compound": "Nc1ncnc2c1ncn2[C@@H]1O[C@H](CO)[C@@H](O)[C@@H]1O",
    "inhibition [%]": 13.4
  },
  {
    "compound": "O=C(O)c1cccnc1C(=O)O",
    "inhibition [%]": -5.39
  },
  {
    "compound": "NC(N)=NCCC[C@@H](NC(=O)[C@@H](N)Cc1ccc(O)cc1)C(=O)O",
    "inhibition [%]": -8.49
  },
  {
    "compound": "CC(CN(C)C)CN1c2ccccc2Sc2ccccc21 (stereo not given)",
    "inhibition [%]": -4.15
  }
]

----------
Overview of recorded parasite load remaining for various compounds
assayRemarks: liver-stage malaria parasite growth inhibition, primary screen, cell-based, HepG2, luciferase luminescence, HepG2 viability (AID 624349);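 further: 100% = mean of DMSO negative control wells on the same plate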
details: P. berghei liver stage in HepG2, luciferase luminescence, concentration not given here; stronger effect = lower value

[
  {
    "compound": "Cc1cc(C(C#N)c2ccc(Cl)cc2)c(Cl)cc1NC(=O)c1cc(I)cc(I)c1O (stereo unspecified)",
    "unitAbbreviation": "%",
    "parasite load remaining": 10.9
  },
  {
    "compound": "CC(=O)Nc1c(I)c(NC(C)=O)c(I)c(C(=O)O)c1I",
    "unitAbbreviation": "%",
    "parasite load remaining": 58.9
  },
  {
    "compound": "Cn1c(=O)c2c(ncn2CC2OCCO2)n(C)c1=O",
    "unitAbbreviation": "%",
    "parasite load remaining": 22.8
  },
  {
    "compound": "N=c1ccn2c(n1)O[C@H]1[C@H](O)[C@@H](CO)O[C@H]12",
    "unitAbbreviation": "%",
    "parasite load remaining": 29.5
  },
  {
    "compound": "O=C(O)c1cc2cc(Cc3cccnc3)ccc2o1",
    "unitAbbreviation": "%",
    "parasite load remaining": 124
  },
  {
    "compound": "O=P(O)(O)C(O)(Cn1ccnc1)P(=O)(O)O",
    "unitAbbreviation": "%",
    "parasite load remaining": 30.2
  },
  {
    "compound": "C=C1CC[C@H](O)C/C1=C/C=C1\\CCC[C@]2(C)[C@@H]([C@H](C)/C=C/[C@H](C)C(C)C)CC[C@@H]12",
    "unitAbbreviation": "%",
    "parasite load remaining": 50.6
  },
  {
    "compound": "CCOC(=O)c1ccc(O)cc1",
    "unitAbbreviation": "%",
    "parasite load remaining": 75.1
  },
  {
    "compound": "C=NC(C(=O)NC1C(=O)N2C1SC(C)(C)C2C(=O)O)c1ccccc1 (stereo unspecified)",
    "unitAbbreviation": "%",
    "parasite load remaining": 130
  },
  {
    "compound": "CC(C)(C)C(=O)OCOC(=O)[C@@H]1N2C(=O)[C@@H](NC(=O)[C@H](N)c3ccccc3)[C@H]2SC1(C)C",
    "unitAbbreviation": "%",
    "parasite load remaining": 105
  },
  {
    "compound": "CCN(C)C(=O)Oc1cccc([C@H](C)N(C)C)c1",
    "unitAbbreviation": "%",
    "parasite load remaining": 32.3
  }
]
